# TESTED TARGET: PTPN2 (HiBIT-PTPN2 in 293T.109 cells) (Homo sapiens, UniProt P17706)
# Construct: expressed in transfected cells; host or cells: 293T.109 (293T WT from ATCC)
# Sequence (P17706 whole entry, species assumed): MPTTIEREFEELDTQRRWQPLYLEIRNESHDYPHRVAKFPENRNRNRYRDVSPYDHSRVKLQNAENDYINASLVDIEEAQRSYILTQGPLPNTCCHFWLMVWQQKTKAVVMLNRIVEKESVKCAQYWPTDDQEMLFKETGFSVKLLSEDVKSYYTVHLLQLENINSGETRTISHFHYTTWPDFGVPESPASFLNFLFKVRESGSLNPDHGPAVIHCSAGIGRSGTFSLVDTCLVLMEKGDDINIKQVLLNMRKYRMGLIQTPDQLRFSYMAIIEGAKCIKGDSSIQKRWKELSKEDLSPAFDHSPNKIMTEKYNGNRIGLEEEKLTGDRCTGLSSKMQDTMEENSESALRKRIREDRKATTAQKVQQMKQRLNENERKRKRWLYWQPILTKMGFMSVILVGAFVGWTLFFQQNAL
# ASSAY NOTES: HiBiT Degradation 293T.109 PTPN2 (Nano-Glo HiBiT Lytic Assay)
# Format: cell-based
# MEASUREMENT SETUP: 24.0 hours
Catalogue of DC50 values

Worked set:
{"MOLECULE": "Cn1c(=O)n(C2CCC(=O)NC2=O)c2cccc(CCC(=O)Nc3cccc(CS(=O)(=O)N4CCC(Nc5cccc(-c6sc(C(=O)O)c(OCC(=O)O)c6Cl)c5)CC4)c3)c21 (centres unmarked)", "DC50": "50 to 200 nM"}
{"MOLECULE": "O=C(O)COc1c(C(=O)O)sc(-c2cccc(N[C@@H]3CCN(S(=O)(=O)Cc4cccc(NC(=O)N5CCC(c6ccc7c8c(cccc68)C(=O)N7C6CCC(=O)NC6=O)CC5)c4)C4(CC4)C3)c2)c1Cl (some centres unmarked)", "DC50": "50 to 200 nM"}
{"MOLECULE": "Cn1c(=O)n(C2CCC(=O)NC2=O)c2ccc(C3CCN(CC(=O)Nc4cccc(CS(=O)(=O)N5CCC(Nc6cccc(-c7sc(C(=O)O)c(OCC(=O)O)c7Cl)c6)CC5(C)C)c4)CC3)cc21 (centres unmarked)", "DC50": "< 50 nM"}
{"MOLECULE": "Cn1c(=O)n(C2CCC(=O)NC2=O)c2ccc(C3CCN(C(=O)Nc4cccc(CS(=O)(=O)N5CC[C@H](Nc6cccc(-c7sc(C(=O)O)c(OCC(=O)O)c7Cl)c6)CC56CC6)c4)CC3)cc21 (some centres unmarked)", "DC50": "< 50 nM"}

In the following, a different molecule is considered.
query: Consider the molecule Cn1c(=O)n(C2CCC(=O)NC2=O)c2ccc(N3CCC(N4CCN(c5cccc(CS(=O)(=O)N6CC[C@H](Nc7cccc(-c8sc(C(=O)O)c(OCC(=O)O)c8Cl)c7)CC6(C)C)c5)C4=O)CC3)cc21 (some centres unmarked) and give its measured DC50.
result: 50 to 200 nM
